B1: Mineralocorticoid receptor, residues 600 to 675; numbered along this chain, P08235 (parent)
chain: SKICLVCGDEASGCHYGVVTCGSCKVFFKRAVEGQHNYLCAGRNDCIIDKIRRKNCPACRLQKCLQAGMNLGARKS

Variants of: B1
Assay: abundance fitness (aPCA) (normalised: wild type 0, dead -1); higher = more abundant; growth selection in yeast, the domain comes from the species named
Settings: Homo sapiens
RESULT_TYPE: abundance fitness
Give the figure by itself; no unit, no explanation.

Measured abundance fitness, "Q35C" : -0.073

Measured abundance fitness, "C4S" : -0.851

Measured abundance fitness, "N70Y" : -0.009

Measured abundance fitness, "L5Y" : -0.076

Measured abundance fitness, "D45Y" : -0.159

Measured abundance fitness, "C24K" : -1.03

Further cases:
Measured abundance fitness, "D9C" : -0.137

Measured abundance fitness, "A41Y" : 0.001
